# Test system: MCF-10A, a non-tumourigenic cell line
# protocolDescription: Monolayer assay (CCK-8 cytotoxicity), normal cells
# Format: cell-based
# conditionDetails: Homo sapiens, MCF-10A, 24 h, MCF10A, Normal Breast Epithelium; 24 hrs exposure, CCK-8
parameterMeasured: pIC50
Give bare numbers, as −log10 of the molar value.

QUERY: Endpoint output: pIC50 of CC(C)CC1CCC(O)(C(C)(O)C(=O)NC2C(=O)N3NCCCC3C(=O)N(O)C(C)C(=O)NCC(=O)N3NCCCC3C(=O)N(O)C(C)C(=O)OC2C(C)C)OC1C (stereo not shown) . Value?
RESULT: 7.72

* * *

Record form. Attribute: IC50. Fill in for each entry.
# Test system: HCT 116 (Colorectal Cancer)
# protocolDescription: Monolayer assay (CCK-8 cytotoxicity)
# Assay type: cell-based, human
# conditionDetails: Homo sapiens, HCT-116; HCT116; Table 6; read-out: IC50 (μM) in different cancer cell lines: HCT116

compound	IC50
CC(C)CC1CCC(O)(C(C)(O)C(=O)NC2C(=O)N3NCCCC3C(=O)N(OC(=O)CCNC(=O)OCc3ccccc3)C(C)C(=O)NCC(=O)N3NCCCC3C(=O)N(O)C(C)C(=O)OC2C(C)C)OC1C (centres unmarked) [Compound 3]	0.009 µM

// each compound listed below needs its IC50
1. CC(C)CC1CCC(O)(C(C)(O)C(=O)NC2C(=O)N3N=CCCC3C(=O)N(O)C(C)C(=O)NCC(=O)N3NCCCC3C(=O)N(O)C(C)C(=O)OC2C(C)C)OC1C (centres unmarked) [Formula (1b)]
2. CC(C)CC1CCC(O)(C(C)(O)C(=O)NC2C(=O)N3NCCCC3C(=O)NC(C)C(=O)NCC(=O)N3NCCCC3C(=O)NC(C)C(=O)OC2C(C)C)OC1C (centres unmarked) [Compound 6]
3. CC(C)CC1CCC(O)(C(C)(O)C(=O)NC2C(=O)N3N=CCCC3C(=O)N(O)C(C)C(=O)NCC(=O)N3N=CCCC3C(=O)N(O)C(C)C(=O)OC2C(C)C)OC1C (centres unmarked) [Compound 5]
4. CON1C(=O)C2CCCNN2C(=O)C(NC(=O)C(C)(O)C2(O)CCC(CC(C)C)C(C)O2)C(C(C)C)OC(=O)C(C)N(OC)C(=O)C2CCCNN2C(=O)CNC(=O)C1C (centres unmarked) [Compound 2]

RESULT:
1: 0.032 µM; 2: 0.284 µM; 3: < 0.01 µM; 4: 0.635 µM

* * *

# Tested on: MCF-10A, a non-tumourigenic cell line
# protocolDescription: Monolayer assay (CCK-8 cytotoxicity), normal cells
# Assay type: cell-based
# conditionDetails: MCF10A normal cells; Table 6; read-out: IC50 (μM) in different cancer cell lines: MCF10A
parameterMeasured: IC50 (µM)
Give bare numbers, in µM.

compound	IC50 [µM]
CC(=O)ON1C(=O)C2CCCNN2C(=O)C(NC(=O)C(C)(O)C2(O)CCC(CC(C)C)C(C)O2)C(C(C)C)OC(=O)C(C)N(O)C(=O)C2CCCNN2C(=O)CNC(=O)C1C (stereo not drawn)	0.83

Shift focus to the following entry.
QUERY: Endpoint output: IC50 of CON1C(=O)C2CCCNN2C(=O)C(NC(=O)C(C)(O)C2(O)CCC(CC(C)C)C(C)O2)C(C(C)C)OC(=O)C(C)N(O)C(=O)C2CCCNN2C(=O)CNC(=O)C1C (stereo not drawn) . Value?
RESULT: 0.247
